# System: K-562 leukemia
# run_description: NCI tumour cell line growth inhibition, 48 h
Collected TGI values appear next to each entry.

Take a look at these entries with their results.
CO[C@H]1C[C@@H]2CC[C@@H](C)[C@@](O)(O2)C(=O)C(=O)N2CCCC[C@H]2C(=O)O[C@H]([C@H](C)C[C@@H]2CC[C@@H](OCCO)[C@H](OC)C2)CC(=O)[C@H](C)C=C(C)[C@@H](O)[C@@H](OC)C(=O)[C@H](C)C[C@H](C)/C=C/C=C/C=C1C ... 31.4 µM
Cc1cc(N2CCN(C)CC2)n2nc(-c3ccc(Cl)cc3)nc2n1 ... > 100 µM

Proceeding to the next compound to report its TGI.
// fetch K-562 leukemia TGI for CC(=O)N1CCn2c1nc1cc(Cl)ccc12
> 100 µM
